Each entry below carries its recorded solubility in water.

solubility in water measured on `CCOC(=O)[C@H](Cc1ccc(O)cc1)NC(=O)/C=C\C(=O)O` = > 600 mM

solubility in water measured on CCOC(=O)C(CCCNC(=N)N)NC(=O)C=CC(=O)O (stereo not shown) = > 1000 mM

solubility in water measured on `CCOC(=O)[C@H](Cc1c[nH]c2ccccc12)NC(=O)/C=C\C(=O)O` = > 700 mM

solubility in water measured on CCOC(=O)C(Cc1ccccc1)NC(=O)C=CC(=O)O (stereo not shown) = > 700 mM
